- tgt: Bcl-2 protein (Recombinant Human Bcl-2 Protein) (Homo sapiens)
- Construct: purchased Novus Biologicals NBP2-34889
- assay-protocol: AS-MS evaluation of binding of the Example 4 mixture library (1200 compounds/well) to Bcl-2, ASMS ratio (%)
- condition-set: replicate n = 1; mixture library; value belongs to the MS peak assigned to the compound
outcome-measure: ASMS ratio (%) n = 1
Report the figure in % without appending any unit label.

Use these answered entries as a reference point.
>>> experimental_result("CCOc1cccc(-c2ccccc2CN2CCN(c3ccc(C(=O)NS(=O)(=O)C(C)(C)C)nn3)CC2)c1")
1.2
>>> experimental_result("CCOc1cncc(-c2cc(CN3CCN(c4ccc(C(=O)NS(=O)(=O)C(C)(C)C)cc4)CC3)cc(OC(C)C)c2)c1")
0.0
>>> experimental_result("CCOc1cncc(-c2ccc(CN3CCN(c4ccc(C(=O)NS(C)(=O)=O)cc4)CC3)c(OC)c2)c1")
0.0

As a next step, examine the compound that follows.
Qu. Record CCOc1cccc(C#Cc2ccccc2CN2CCN(c3ccc(C(=O)NS(C)(=O)=O)nn3)CC2)c1 : what is its ASMS ratio (%) n = 1 with Bcl-2 protein (Recombinant Human Bcl-2 Protein) (Homo sapiens)?
Ans. 0.0

----------
- tgt: Bcl-2 protein (Recombinant Human Bcl-2 Protein) (Homo sapiens, UniProt P10415)
- Construct: purchased Novus Biologicals NBP2-34889
- Sequence (P10415 whole entry): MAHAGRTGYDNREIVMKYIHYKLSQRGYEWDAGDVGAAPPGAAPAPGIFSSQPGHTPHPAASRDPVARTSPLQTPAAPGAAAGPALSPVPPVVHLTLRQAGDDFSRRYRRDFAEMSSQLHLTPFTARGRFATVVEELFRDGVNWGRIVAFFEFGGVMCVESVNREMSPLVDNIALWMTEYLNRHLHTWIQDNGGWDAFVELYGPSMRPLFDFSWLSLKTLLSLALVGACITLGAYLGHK
- assay-protocol: AS-MS evaluation of binding of the mixture libraries of Examples 8 and 9 to Bcl-2, ASMS ratio (%), Example 11
- condition-set: ASMS ratio, replicate N4 (additional day); mixtures obtained from Example 9, 10 uM Bcl-2 protein
Documented AS-MS(%) N4 across a set of compounds
Report the figure in % without appending any unit label.

Use these answered entries as a reference point.
>>> experimental_result("CCOc1cc(C(C)C(=O)Nc2ccccc2)cc(N2CCN(c3ccc(C(=O)NS(=O)(=O)c4ccc(N[C@H](CCN5CCOCC5)CSc5ccccc5)c([N+](=O)[O-])c4)cc3)CC2)c1 (stereo partly shown) [2-2-d1E04-2-0417]")
65.5
>>> experimental_result("Cc1ccc(NC(=O)C(C)c2cc(O)cc(N3CCN(c4ccc(C(=O)NS(=O)(=O)c5ccc(N[C@H](CCN6CCOCC6)CSc6ccccc6)c([N+](=O)[O-])c5)cc4)CC3)c2)cc1 (stereo partly shown) [2-2-d1E04-1-0446]")
58.1
>>> experimental_result("CC(C(=O)Nc1nc2ccccc2s1)c1cc(O)cc(N2CCN(c3ccc(C(=O)NS(=O)(=O)c4ccc(N[C@H](CCN5CCOCC5)CSc5ccccc5)c([N+](=O)[O-])c4)cc3)CC2)c1 (stereo partly shown) [2-2-d1E04-1-0495]")
69.0

As a next step, examine the compound that follows.
Qu. // AS-MS(%) N4 lookup, key: CC(C(=O)Nc1ccc(F)cc1)c1cc(O)cc(N2CCN(c3ccc(C(=O)NS(=O)(=O)c4ccc(N[C@H](CCN5CCOCC5)CSc5ccccc5)c([N+](=O)[O-])c4)cc3)CC2)c1 (stereo partly shown) [2-2-d1E04-1-0454]
Ans. 74.6

----------
- tgt: Bcl-2 protein (Recombinant Human Bcl-2 Protein) (Homo sapiens)
- Construct: purchased Novus Biologicals NBP2-34889
- assay-protocol: AS-MS evaluation of binding of the mixture libraries of Examples 8 and 9 to Bcl-2, ASMS ratio (%), Example 11
- condition-set: ASMS ratio, replicate N3 (additional day); mixtures obtained from Example 9, 10 uM Bcl-2 protein
Note to self: AS-MS(%) N3 under 60% means Met, ties and anything higher get Not met.

Study these solved cases before continuing.
>>> cat("CC(C(=O)Nc1ccc(C(F)(F)F)cc1)c1cc(O)cc(N2CCN(c3ccc(C(=O)NS(=O)(=O)c4ccc(N[C@H](CCN5CCOCC5)CSc5ccccc5)c([N+](=O)[O-])c4)cc3)CC2)c1 (some centres unmarked)")
"Met"
>>> cat("CC(C(=O)Nc1ccccc1)c1cc(O)cc(N2CCN(c3ccc(C(=O)NS(=O)(=O)c4ccc(N[C@H](CCN5CCOCC5)CSc5ccccc5)c([N+](=O)[O-])c4)cc3)CC2)c1 (some centres unmarked)")
"Not met"
>>> cat("CCOc1cc(C(C)C(=O)Nc2ccc(C)cc2)cc(N2CCN(c3ccc(C(=O)NS(=O)(=O)c4ccc(N[C@H](CCN5CCOCC5)CSc5ccccc5)c([N+](=O)[O-])c4)cc3)CC2)c1 (some centres unmarked)")
"Met"
>>> cat("CCOc1cc(C(C)C(=O)Nc2nc3ccccc3s2)cc(N2CCN(c3ccc(C(=O)NS(=O)(=O)c4ccc(N[C@H](CCN5CCOCC5)CSc5ccccc5)c([N+](=O)[O-])c4)cc3)CC2)c1 (some centres unmarked)")
"Met"

Qu. Could you please tell me whether AS-MS(%) N3 recorded for CC(C(=O)Nc1ccccc1)c1cc(O)cc(N2CCN(c3ccc(C(=O)NS(=O)(=O)c4ccc(NCCSc5ccccc5)c([N+](=O)[O-])c4)cc3)CC2)c1 (centres unmarked) is less than 60%?
Ans. Met
